List of MIC values.
Tested on: Mycobacterium tuberculosis
PROTOCOL_NOTES: Antitubercular activity against Mycobacterium tuberculosis H37Rv ATCC 27294 after 28 days by two-fold serial dilution method
Assay type: functional
MEASUREMENT_CONTEXT: Mycobacterium tuberculosis, H37Rv ATCC 27294, 672 h
Record the value in µM, omitting the unit from your answer.

NNC(=O)c1ccncc1 : 0.72
CC(=O)c1ccc(N2CCN(C(=O)c3nc4cc(C(F)(F)F)ccc4s3)CC2)cc1 : 14.4
CN1CCN(C(=O)c2nc3cc(Cl)ccc3s2)CC1 : 84.5
O=C(c1nc2cc(Cl)ccc2s1)N1CCN(c2ccncc2)CC1 : 34.8
CN1CCN(C(=O)c2nc3cc(C(F)(F)F)ccc3s2)CC1 : 19

So what's the measured MIC for this one? O=C(c1nc2cc(C(F)(F)F)ccc2s1)N1CCOCC1
2.47

So what's the measured MIC for this one? O=C(c1nc2cc(Cl)ccc2s1)N1CCN(C(c2ccccc2)c2ccccc2)CC1
1.74

So what's the measured MIC for this one? CO[C@H]1/C=C/O[C@@]2(C)Oc3c(C)c(O)c4c(O)c(c(/C=N/N5CCN(C)CC5)c(O)c4c3C2=O)NC(=O)/C(C)=C\C=C\[C@H](C)[C@H](O)[C@@H](C)[C@@H](O)[C@@H](C)[C@H](OC(C)=O)[C@@H]1C
0.24

So what's the measured MIC for this one? COc1ccc(N2CCN(C(=O)c3nc4ccccc4s3)CC2)cc1
35.4

###

PROTOCOL_NOTES: Cytotoxicity against mouse RAW264.7 cells at 50 ug/ml after 72 hrs by MTT assay
Assay type: cell-based
MEASUREMENT_CONTEXT: read-out: INH
ENDPOINT_NAME: cytotoxicity at 72 h, 50 ug/ml (%)
Record the value in %, omitting the unit from your answer.

CN1CCN(C(=O)c2nc3cc(C(F)(F)F)ccc3s2)CC1 : 12.6
O=C(c1nc2ccccc2s1)N1CCN(C(c2ccccc2)c2ccccc2)CC1 : 60.7
CC(=O)N1CCN(C(=O)c2nc3ccccc3s2)CC1 : 48.8
CC(=O)N1CCN(C(=O)c2nc3cc(C(F)(F)F)ccc3s2)CC1 : 20.2

Pending compound:
So what's the measured cytotoxicity at 72 h, 50 ug/ml for this one? CC(=O)c1ccc(N2CCN(C(=O)c3nc4ccccc4s3)CC2)cc1
62.3

###

PROTOCOL_NOTES: Cytotoxicity against mouse RAW264.7 cells at 50 ug/ml after 72 hrs by MTT assay
Type: cell-based
MEASUREMENT_CONTEXT: read-out: INH
List of cytotoxicity at 72 h, 50 ug/ml values.
Record the value in %, omitting the unit from your answer.

O=C(c1nc2ccccc2s1)N1CCOCC1 : 36.2

So what's the measured cytotoxicity at 72 h, 50 ug/ml for this one? O=C(c1nc2cc(Cl)ccc2s1)N1CCN(c2cnccn2)CC1
54.9

So what's the measured cytotoxicity at 72 h, 50 ug/ml for this one? CC(=O)c1ccc(N2CCN(C(=O)c3nc4cc(C(F)(F)F)ccc4s3)CC2)cc1
30.6

So what's the measured cytotoxicity at 72 h, 50 ug/ml for this one? O=C(c1nc2cc(Cl)ccc2s1)N1CCN(c2ccccc2)CC1
41.2

So what's the measured cytotoxicity at 72 h, 50 ug/ml for this one? O=C(c1nc2cc(Cl)ccc2s1)N1CCSCC1
62.5

So what's the measured cytotoxicity at 72 h, 50 ug/ml for this one? CCOC(=O)c1nc2cc(Cl)ccc2s1
37.4
